The reported measurements were obtained from patent US20220249438A1.

# System: MDA-MB-468 cells
# test.parameters: read-out: IC-50, cell viability; MDA-MB-468 monolayer; Hoechst 33342; 1 nM to 1 μM; FIG. 10
recorded.endpoint: IC50 (µM)

[
  {
    "smiles.text": "CN1C(=CC=CC=CC2=[N+](Cc3ccc(CCl)cc3)c3ccccc3C2(C)C)C(C)(C)c2ccccc21.[Cl-]",
    "measurement.target": "MDA-MB-468 cells",
    "value.observed": 0.432
  }
]
